Molecular target: T1, CD27 protein (His-tagged, Sino Biological Inc. 10039-H08B1) (human, UniProt P26842 20-192)
T1 construct: bought; coated onto ELISA plates; also called human CD27; recombinant protein; not shown: His tag
T1 sequence (looked up): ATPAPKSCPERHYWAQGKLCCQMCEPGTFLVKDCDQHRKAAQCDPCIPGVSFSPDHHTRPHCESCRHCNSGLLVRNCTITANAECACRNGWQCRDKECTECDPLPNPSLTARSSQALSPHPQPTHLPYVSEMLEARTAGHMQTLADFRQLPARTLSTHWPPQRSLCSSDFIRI
Assay: ELISA on coated His-tagged CD27; note: test concentration or dose not given here
Measured ELISA [abs. corr.], listed per entry.

{"columns": ["binder", "display-unit", "ELISA [abs. corr.]"],
 "data": [
  ["P018.S.03.A.C05 (antibody, V domains shown, V regions on human Ig constant parts; also called AB27_46) VH: QSLEESGGGLVQPGGTLTLTCKASGIDFSSSFYMCWVRQAPGKGLERIACTYNRDGSTYYASWAKGRFTISKTSSTTVTLQMASLTVADTATYFCARDDGYPGSGYVFNLWGPGTLVTVSS VL: DVVMTQTPASVEAAVGGTVTIKCQASQSVSSYLSWYQQKPGQRPKLLIYGASNLESGVPSRFKGSGSGTEFTLTISGVQSDDAATYYCQGGYYSSGADNNSFGGGTELVVK", "abs. corr.", 3.32],
  ["P018.S.01.A.B04 (antibody, V domains shown, V regions on human Ig constant parts; also called AB27_5) VH: QEQLEESGGRLVTPGGTLTLTCTASGFSLSSYDMSWVRQAPGKGLEWIGYIWSDGNTDYASWAAGRFTASRASTTVDLKMTSLTTEDTATYFCARGYTGFFLWGPGTLVTVSS VL: DVVMTQTPSSVSAAVGGTVTIKCQASQSIGSSYLSWYQQKPGQPPKLLIYKTSTLASGVPSRFKGSGSGTEFTLTISDLESDDAATYYCQCTYYGGSWRVAFGGGTEVVVK", "abs. corr.", 3.36],
  ["P018.S.03.A.B05 (antibody, V domains shown, V regions on human Ig constant parts; also called AB27_43) VH: QEQLEESGGDLVKPEGSLTLTCTASGFDLSSRYWICWVRQAPGKGLEWIGCIKTGFSNTWYASWATGRFTFSKASSTTVTLQMTSLTVADTATYFCARIAAAASASDDFRLWGPGTLVTVSS VL: AQVLTQTPSSVSAAVGGTVTISCQSSKSVYNKWLSWFQQKPGQPPKLLIYDASDLASGVPSRFKGSGSGTEFTLTISDVQSDDAATYFCLGHYDSSSDRFVFGGGTEVVVK", "abs. corr.", 3.14]
]}

Values compiled from patent US20210253725A1.
